Cited source: patent US20260166159A1

# assay target: KRAS-G12D (Homo sapiens, UniProt P01116, G12D)
# Construct: endogenous in cells; host or cells: A-427 (ATCC), AGS, AsPc-1, Panc 04.03
# Sequence (P01116 1-188 isoform P01116-2 G12D): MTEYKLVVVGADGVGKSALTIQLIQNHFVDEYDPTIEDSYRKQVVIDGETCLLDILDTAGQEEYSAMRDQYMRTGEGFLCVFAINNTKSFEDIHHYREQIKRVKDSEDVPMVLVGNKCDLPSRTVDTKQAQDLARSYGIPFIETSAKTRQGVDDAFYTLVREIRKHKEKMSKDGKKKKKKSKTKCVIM
# procedure text: KRAS-G12D degradation assay (Western Blot), AsPc-1 cells
# Type: cell-based
# assay setup: ASPC1, 24 h
measured parameter: Dmax (%)
Numbers only, in %.

Some compounds with known Dmax results, for comparison:
[
  {
    "compound": "C#Cc1c(F)ccc2cc(O)cc(-c3ccc4c(N5CC6CCC(C5)N6)nc(OCC5(CN6CCN(CC7CCC8(CC7)CCN(C(=O)c7ccc(OC)c(N9CCC(=O)NC9=O)c7)CC8)CC6)CC5)nc4c3F)c12 [Example 71]",
    "assay target": "KRAS-G12D (Homo sapiens, UniProt P01116, G12D)",
    "Dmax / %": 98.6
  },
  {
    "compound": "C#Cc1c(F)ccc2cc(O)cc(-c3ncc4c(N5CC6CCC(C5)N6)nc(OC[C@@H](CN5CCN(CC6CCC7(CC6)CCN(C(=O)c6ccc(OC)c(N8CCC(=O)NC8=O)c6)CC7)CC5)C(C)C)nc4c3F)c12 [Example 252]",
    "assay target": "KRAS-G12D (Homo sapiens, UniProt P01116, G12D)",
    "Dmax / %": 100
  }
]

Please find the next compound below.
Give a short answer stating reported Dmax for C#Cc1c(F)ccc2cc(O)cc(-c3ncc4c(N5CC6CCC(C5)N6)nc(OC[C@H](C)CN5CCN(CC6CCC7(CC6)CCN(C(=O)c6ccc(Cl)c(N8CCC(=O)NC8=O)c6)CC7)CC5)nc4c3F)c12 [Example 102] .
100

---

# assay target: KRAS-G12D (Homo sapiens, UniProt P01116, G12D)
# Construct: endogenous in cells; host or cells: A-427 (ATCC), AGS, AsPc-1, Panc 04.03
# procedure text: KRAS-G12D degradation assay (Western Blot), AGS cells
# Type: cell-based
# assay setup: 24 h
measured parameter: DC50 (nM)
One number for each entry, in nM.

Give measured DC50 for every item shown.
1. CCc1cccc2cc(O)cc(-c3ncc4c(N5CC6CCC(C5)N6)nc(OCC5(CN6CCN(CC7CCC8(CC7)CCN(C(=O)c7ccc(OC)c(N9CCC(=O)NC9=O)c7)CC8)CC6)CC5)nc4c3F)c12
2. C#Cc1c(F)ccc2cc(O)cc(-c3ncc4c(N5CC6CCC(C5)N6)nc(OCC(C)CN5CCN(CC6CCC7(CC6)CCN(C(=O)c6ccc(OC)c(N8CCC(=O)NC8=O)c6)CC7)CC5)nc4c3F)c12 (stereo not drawn)

19.9
3.82

---

Kindly state DC50 for each of the entries shown.
# assay target: KRAS-G12D (Homo sapiens, UniProt P01116, G12D)
# Construct: endogenous in cells; host or cells: A-427 (ATCC), AGS, AsPc-1, Panc 04.03
# procedure text: KRAS-G12D degradation assay (Western Blot), A-427 cells
# Format: cell-based
# assay setup: A427 cells, 24 h; class symbols

[
  {
    "structure as smiles": "C#Cc1c(F)ccc2cc(O)cc(-c3ncc4c(N5CC6CCC(C5)N6)nc(OCC5(CN6CCN(CC7CCC8(CC7)CCN(C(=O)c7ccc(Cl)c(N9CCC(=O)N(C)C9=O)c7)CC8)CC6)CC5)nc4c3F)c12",
    "assay target": "KRAS-G12D (Homo sapiens, UniProt P01116, G12D)",
    "DC50": "1000 to 10000 nM"
  },
  {
    "structure as smiles": "C#Cc1c(F)ccc2cc(O)cc(-c3ncc4c(N5CC6CCC(C5)N6)nc(OCC5(CN6CCN(CC7CCC8(CC7)CCN(C(=O)c7ccc(Br)c(N9CCC(=O)NC9=O)c7)CC8)CC6)CC5)nc4c3F)c12",
    "assay target": "KRAS-G12D (Homo sapiens, UniProt P01116, G12D)",
    "DC50": "≤ 50 nM"
  },
  {
    "structure as smiles": "C#Cc1c(F)ccc2cc(O)cc(-c3ncc4c(N5CC6CCC(C5)N6)nc(OC[C@@H]5CCCN5CC5CCN(CCC(=O)N[C@H](C(=O)N6C[C@H](O)C[C@H]6C(=O)NCc6ccc(-c7scnc7C)cc6)C(C)(C)C)CC5)nc4c3F)c12",
    "assay target": "KRAS-G12D (Homo sapiens, UniProt P01116, G12D)",
    "DC50": "1000 to 10000 nM"
  },
  {
    "structure as smiles": "C#Cc1c(F)ccc2cc(O)cc(-c3ncc4c(N5CC6CCC(C5)N6)nc(OCC5(CN6CC(CCN7CCC8(CC7)CCN(C(=O)c7ccc(OC)c(N9CCC(=O)NC9=O)c7)CC8)C6)CC5)nc4c3F)c12",
    "assay target": "KRAS-G12D (Homo sapiens, UniProt P01116, G12D)",
    "DC50": "1000 to 10000 nM"
  }
]

Please find the next compound below.
Give a short answer stating reported DC50 for `C#Cc1cccc2cc(O)cc(-c3ncc4c(N5CC6CCC(C5)N6)nc(OCC5(CN6CCN(CC7CCC8(CC7)CCN(C(=O)c7ccc(C)c(N9CCC(=O)NC9=O)c7)CC8)CC6)CC5)nc4c3F)c12` .
≤ 50 nM
